Data origin: the supplement of paper PMC7125110

B1: glmS ribozyme (parent)
chain: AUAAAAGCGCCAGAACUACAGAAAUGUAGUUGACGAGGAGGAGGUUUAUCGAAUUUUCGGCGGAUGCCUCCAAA

# Variants of: B1
# protocol-details: self-cleavage kobs at 40 uM GlcN6P; higher = faster cleavage; RNA array
# experimental-setup: with glucosamine-6-phosphate
Variants at the floor of the assay were thinned out.
readout: self-cleavage kobs at 40 uM GlcN6P

INSERT INTO measurements (mutations, data_value) VALUES
  ('C34G G43C', '< 1e-05 s⁻¹'),
  ('U31C A53G C70U', '0.000212 s⁻¹'),
  ('C8A A42U G62U', '< 1e-05 s⁻¹'),
  ('U30A G44U', '< 1e-05 s⁻¹'),
  ('A12U G37A', '0.000169 s⁻¹'),
  ('G59C G62U', '< 1e-05 s⁻¹'),
  ('U30A C61U', '< 1e-05 s⁻¹'),
  ('C10G G43C U46A G60A G62C', '< 1e-05 s⁻¹'),
  ('G32U A36U', '< 1e-05 s⁻¹'),
  ('G40A G59U', '< 1e-05 s⁻¹'),
  ('A6C G43U', '< 1e-05 s⁻¹');
